Numbers sourced from patent US10933045B2.

# system-under-test: sigma one receptor (Rattus norvegicus, UniProt Q9R0C9)
# Construct: host or cells: rat brain
# Sequence (Q9R0C9 whole entry): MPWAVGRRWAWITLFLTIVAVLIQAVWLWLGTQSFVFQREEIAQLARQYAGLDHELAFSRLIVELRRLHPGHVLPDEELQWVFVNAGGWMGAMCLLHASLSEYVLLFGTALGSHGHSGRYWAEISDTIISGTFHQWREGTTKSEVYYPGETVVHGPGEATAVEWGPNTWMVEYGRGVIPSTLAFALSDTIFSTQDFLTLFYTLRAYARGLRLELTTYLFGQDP
# test-name: Dextromethorphan binding studies with rat brain (Klein and Musacchio 1992)
pKd: −log10 of the molar value.
quantity: pKd

Request: Look up pKd for this molecule: COc1ccc2c(c1)[C@]13CCCC[C@@H]1[C@H](C2)N(C)CC3 [dextromethorphan]
Result: ~7.70
